biological target: UniProtKB P08709; assay: isolated enzyme kinetic fluorogenic substrate IC50 assay; conditions: 5 min pre‐incubation
Sequence (P08709 213-466 limits assumed): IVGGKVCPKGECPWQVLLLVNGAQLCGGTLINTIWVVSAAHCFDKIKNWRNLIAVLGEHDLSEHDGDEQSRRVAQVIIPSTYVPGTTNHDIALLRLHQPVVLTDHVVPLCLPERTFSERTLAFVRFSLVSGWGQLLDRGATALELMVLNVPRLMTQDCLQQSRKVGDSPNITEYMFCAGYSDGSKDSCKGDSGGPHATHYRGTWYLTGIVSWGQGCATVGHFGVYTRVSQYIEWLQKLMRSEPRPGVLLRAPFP
Sequence (P08709 61-212 partner limits assumed): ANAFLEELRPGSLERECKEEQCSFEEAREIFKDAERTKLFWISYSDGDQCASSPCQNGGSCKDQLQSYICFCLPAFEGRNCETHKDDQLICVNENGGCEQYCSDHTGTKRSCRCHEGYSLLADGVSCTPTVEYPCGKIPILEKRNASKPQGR
recordedMetric: IC50

Enquiry: Consider the molecule COCc1nn(Cc2ccc(Cn3ccccc3=O)cc2)cc1C(=O)NCc1nccc(OC)c1F and give its recorded IC50.
Return: > 10 µM

###

target: UniProt:P07339; test: isolated enzyme kinetic fluorogenic substrate IC50 assay; settings: 5 min pre‐incubation
Sequence (P07339 65-412): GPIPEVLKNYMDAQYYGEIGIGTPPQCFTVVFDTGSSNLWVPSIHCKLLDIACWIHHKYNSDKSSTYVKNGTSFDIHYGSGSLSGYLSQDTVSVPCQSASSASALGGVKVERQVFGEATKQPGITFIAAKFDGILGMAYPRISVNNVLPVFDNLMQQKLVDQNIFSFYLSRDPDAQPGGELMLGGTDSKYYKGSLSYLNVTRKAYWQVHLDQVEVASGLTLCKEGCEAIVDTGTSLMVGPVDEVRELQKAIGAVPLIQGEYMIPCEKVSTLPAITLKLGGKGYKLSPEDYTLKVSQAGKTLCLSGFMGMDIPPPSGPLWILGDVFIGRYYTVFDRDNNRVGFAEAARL
pIC50: −log10 of the molar value.
recordedMetric: pIC50

Enquiry: Consider the compound COCc1nn(Cc2ccc(Cn3ccccc3=O)cc2)cc1C(=O)NCc1nccc(OC)c1F and give its recorded pIC50.
Return: < 5.00

###

biological target: FXa (Homo sapiens, UniProt P00742); test: isolated enzyme kinetic fluorogenic substrate IC50 assay; conditions: 5 min pre‐incubation
Sequence (P00742 235-488 limits assumed): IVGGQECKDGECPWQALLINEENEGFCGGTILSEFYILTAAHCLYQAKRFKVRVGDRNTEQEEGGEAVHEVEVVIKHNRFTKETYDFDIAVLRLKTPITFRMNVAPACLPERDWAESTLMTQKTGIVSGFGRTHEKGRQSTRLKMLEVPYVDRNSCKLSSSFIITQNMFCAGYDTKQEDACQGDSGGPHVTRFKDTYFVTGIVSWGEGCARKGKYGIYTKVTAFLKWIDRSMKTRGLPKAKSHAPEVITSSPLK
Sequence (P00742 41-179 partner limits assumed): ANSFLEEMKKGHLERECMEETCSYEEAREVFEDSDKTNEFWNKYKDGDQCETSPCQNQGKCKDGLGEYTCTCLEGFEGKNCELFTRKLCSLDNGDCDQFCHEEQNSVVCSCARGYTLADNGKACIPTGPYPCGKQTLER
recordedMetric: IC50

Enquiry: Please look at COCc1nn(Cc2ccc(Cn3ccccc3=O)cc2)cc1C(=O)NCc1nccc(OC)c1F [KVD900] and tell me its recorded IC50 on FXa (Homo sapiens, UniProt P00742).
Return: > 10 µM
